- measurement-protocol: Chemical stability of the compound at 50 uM incubated for 120 mins under dark conditions by UV-vis spectroscopic analysis
- Assay type: physicochemical
- condition-notes: 2 h

- smiles-data: "C[N+](C)(CC#CCOC1=NOCC1)Cc1ccc(/N=N/c2ccccc2)cc1.[Br-]"
  Stability: "Stable"
- smiles-data: "C[N+](C)(CC#CCOC1=NOCC1)Cc1cc(F)c(/N=N\\c2c(F)cc(C[N+](C)(C)CC#CCOC3=NOCC3)cc2F)c(F)c1.[Br-].[Br-]"
  Stability: "Stable"
- smiles-data: "C[N+](C)(CC#CCOC1=NOCC1)Cc1ccc(/N=N\\c2ccc(C[N+](C)(C)CC#CCOC3=NOCC3)cc2)cc1.[Br-].[Br-]"
  Stability: "Stable"
